Tested on: wheat germ agglutinin (Triticum aestivum), Alexa647-labelled
Assay: wheat germ agglutinin binders on compound microarrays, profiling panel, artefact control for SMM control-protein annotation, biochemical, small-molecule microarray, 635/667 nm fluorescence (AID 1140);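 further: score merges 667 nm feature emission with signal to noise over triplicate slides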
Details: WGA-A647 binding, 635 nm fluorescence, higher = more signal
just bin them by composite z-score: low: < -0.3; intermediate: ≥ -0.3 and < 0.6; high: ≥ 0.6

1) CO[C@H]1COC(=O)CC=C[C@H](C)[C@@H](OC)COC(=O)CC=C[C@@H]1C: low
2) C#CCCCON=C1C[C@@H](O)[C@@H](O)[C@@H]2[C@@H]3C(=O)N(Cc4ccc5c(c4)OCO5)C(=O)[C@@H]3CC[C@H]12: intermediate
3) CCOC(=O)C[C@H]1[C@H](OC(=O)Cc2ccc3c(c2)OCO3)[C@@H](NC(=O)CC(C)C)c2cc(OCCCO)ccc2N1C(=O)c1ccccc1: intermediate
4) [N-]=[N+]=Nc1ccccc1C[C@@]1(C(=O)N2CCOCC2)N=C(c2ccc(OCCCO)cc2)O[C@@H]1c1ccccc1N=[N+]=[N-]: high
5) CSCC[C@@H]1NC(=O)CC=C[C@@H](C)COC(=O)[C@H](CCSC)NC(=O)CC=C[C@@H](C)COC1=O: low
6) CC(C)[Si]1(C(C)C)OCc2cc(C3CC3)nc(-c3ccccc3)c21: low
7) C=C(COC)/C(=C/C[C@@H](OC(C)=O)c1cccc(OCCO)c1)c1cc(C(=O)OC)ccc1OC: low
8) CCCC[C@H]1OB(O)C[C@H]2C1=C(COC)C[C@H]1C(=O)N(Cc3ccccc3)C(=O)[C@H]12: intermediate
9) CCCC=C(CCC)[C@@H](NC(=O)c1ccccc1)c1ccccc1: low
10) C=CCNC(=O)[C@H]1[C@@H]2C(=O)O[C@@H](c3ccccc3)[C@@H](c3ccccc3)N2[C@@H](c2ccc(O)cc2)[C@]12C(=O)Nc1ccc(C#CCNC(N)=O)cc12: low
11) COc1ccc(C(=O)Nc2ccc(CN3C(=O)[C@]4(O[C@H](CCn5cc(CCO)nn5)[C@@H]([Si](C)(C)c5ccc(OC)cc5)[C@@H]4C)c4ccccc43)cc2)cc1: high
12) COc1ccc([Si](C)(C)[C@H]2[C@H](CC(=O)N(CCO)Cc3ccccc3)O[C@@]3(C(=O)N(C)c4ccccc43)[C@@H]2C)cc1: intermediate
13) COc1ccc(C(O)C2C=CC3C(=O)N(C)C(=O)C3N2N2CCCCC2)cc1OCc1ccccc1 (configuration not stated): high
14) O=C(CS)NCCCCCNC(=O)[C@H]1C[C@H]2C(=O)N[C@@H](Cc3ccccc3)C(=O)N2[C@H]1c1ccc(O)cc1: high
15) C[C@@H]1C=CCC(=O)OC[C@H]2O[C@@H](C=C[C@@H]2O)[C@H](C)C=CCC(=O)OC[C@H]2O[C@H]1C=C[C@@H]2O: low
16) COc1ccc(-c2cc3c(c(-c4ccccc4)n2)[Si](C(C)C)(C(C)C)O[C@H]3c2ccccc2)cn1: intermediate
17) O=C(NCC(F)(F)F)[C@@H]1c2ccccc2C(=O)N(Cc2ccccc2Cl)[C@H]1c1ccc(CO)cc1: low
18) COc1cc(CO)cc(I)c1O[C@H]1C=C(C(=O)NCCO)C[C@@H](NCCc2c[nH]c3ccccc23)[C@@H]1O: high
19) CCN1C(C)=C(C(=O)OC)[C@@H](c2ccccc2)N2C(=O)[C@@]3(C(=O)OC)O[C@@]12[C@@H]1C(=O)N(c2ccccc2)C(=O)[C@@H]13: intermediate
20) COC(=O)[C@@]1(Cc2ccccc2CN=[N+]=[N-])N=C(c2ccc(OCCCO)cc2)O[C@H]1c1ccccc1N=[N+]=[N-]: high
21) COC(=O)[C@H]1[C@@H]2COc3ccccc3[C@H]2N[C@H]1C(=O)OC: intermediate
